biological target: Human glucagon receptor (human, UniProt P47871 26-477); assay: cell-based or functional assay
Where no end group is shown, it is not given here. [ ]: non-standard residue; d: D form. αMePhe(2-F) = C[C@](N)(Cc1ccccc1F)C(=O)O; Aib = CC(C)(N)C(=O)O
valueKind: cAMP production with saturated glucagon peptide; test compound 10 µM (pmol/ml/µg prt)
Only the number, expressed in pmol/ml/µg prt, is required.

These solved cases illustrate the format of a correct answer.
HAQGT[αMePhe(2-F)]TSD[Bip(OMe)][Bip(2F)] [Seq. ID. No. 27: HAQGT-(α-Me-2F-Phe)-TSD-Bip(OMe)-Bip(2F)]; 0
H[Aib]QGTFTSD[Bip(OMe)][Bip(2F)] [Seq. ID. No. 15: H-Aib-QGTFTSD-Bip(OMe)-Bip(2F)]; 0
HXQGTXTSDXX (Aib at 2; α-Me-2F-Phe at 6; Bip(OMe) at 10; Bip(2CF3) at 11; C-terminal amide (CONH2)) [Seq. ID. No. 32: H-Aib-QGT-(α-Me-2F-Phe)-TSD-Bip(OMe)-Bip(2CF3)]; 0
HAQGT[αMePhe(2-F)]TSD[Bip(OMe)][Bip(Pyr)] [Seq. ID. No. 26: HAQGT-(α-Me-2F-Phe)-TSD-Bip(OMe)-Bip(Pyr)]; 2
HSQGTXTSDXX (α-Me-2F-Phe at 6; Bip(OMe) at 10; Bip(Pyr) at 11) [Seq. ID. No. 22: HSQGT-(α-Me-2F-Phe)-TSD-Bip(OMe)-Bip(Pyr)]; 16

Ask: Dear colleague, I am looking for the recorded cAMP production with saturated glucagon peptide; test compound 10 µM of the following binder: HSQGTFTSD[Bip(OMe)][Bip(2CF3)] (not fully specified (C-terminus); printed as HSQGTFTSD-Bip(OMe)-Bip(2CF3)) [Seq. ID. No. 8: HSQGTFTSD-Bip(OMe)-Bip(2CF3)]
Reply: 0
